target: DNA polymerase beta L22P (UniProt P06746 1-335, L22P); experiment: EMSA
Value Type: pKd
Answers are plain numbers, as −log10 of the molar value.

Known results for binders:
Binder	Result Number
45AG1bpDNP (1-nt gapped, non-phosphorylated downstream) (dsDNA, no 5' phosphate on downstream oligo (S2); template 5' phosphate) DNA 1: GCCTCGCAGCCGTCCAACCAAC DNA 2: CAACCTCGATCCAATGCCGTCC DNA 3: GGACGGCATTGGATCGAGGTTGAGTTGGTTGGACGGCTGCGAGGC	6.54
45AG (1-nt gapped, 5'-phosphorylated downstream) (dsDNA, 5' phosphate on downstream oligo (S2) and template) DNA 1: GCCTCGCAGCCGTCCAACCAAC DNA 2: CAACCTCGATCCAATGCCGTCC DNA 3: GGACGGCATTGGATCGAGGTTGAGTTGGTTGGACGGCTGCGAGGC	6.64

Please look at the following binder next.
Quick note, pKd for 45AGR (recessed) (dsDNA, template 5' phosphate) DNA 1: GCCTCGCAGCCGTCCAACCAAC DNA 2: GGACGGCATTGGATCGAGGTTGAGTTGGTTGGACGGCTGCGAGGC landed at 6.34

Reference source for all entries: paper PMC2241857
